test: HepG2 cell viability effects, profiling panel, calcein-AM fluorescence, 48 h, basal (AID 1164); settings: higher = more signal; also: test concentration not given here
Please note: 1 applies when z-score is 0.5 or greater, and 0 applies otherwise.

Please review the following examples before continuing.
compound | category label
COC(=O)[C@@H]1CC[C@H](C)[C@@H](c2ccc(Br)cc2)N1 | 0
CCOC(=O)[C@H](Cc1ccccc1)NC(=O)CCC1CC(OC(=O)NCc2cccc3ccccc23)CC2(CCCC(COC(=O)NCc3ccc4c(c3)OCO4)O2)O1 (stereo partly drawn) | 1
CC(CCN1CCc2nc(-c3ccccc3)c(-c3ccccc3)cc2C1)=NO[C@H](C)c1cn([C@H](CO)Cc2ccccc2)nn1 | 1

API: above_or_equal(metric=z-score, cutoff=0.5) for item `COCC#Cc1ccc([C@@H]2N[C@H](C(=O)O)CC[C@H]2C)cc1` 1

API: above_or_equal(metric=z-score, cutoff=0.5) for item `COc1ccc(COC(=O)NN=C2C[C@@H](O)[C@@H](O)[C@@H]3[C@@H]4C(=O)N(Cc5ccc6c(c5)OCO6)C(=O)[C@@H]4CC[C@H]23)cc1` 1

API: above_or_equal(metric=z-score, cutoff=0.5) for item `O=C1[C@H]2[C@H]3[C@H](O)[C@H](O)CC(=NOC[C@@H](O)COCc4ccco4)[C@@H]3CC[C@H]2C(=O)N1Cc1ccccc1` 0

API: above_or_equal(metric=z-score, cutoff=0.5) for item `CC(C)=NO[C@@H](C)c1cn([C@H](CO)Cc2ccccc2)nn1` 1
